Protocol Details: Peptide solubility in PBS/H2O
Cond: PBS, Solubility in PBS (mg/ml), PBS (first figure of cell)
Residues, ends and D or L forms follow the SMILES beside them.

Compound | solubility, µg/mL
CC(C)C[C@H](NC(=O)[C@H](Cc1c[nH]c2ccccc12)NC(=O)[C@H](C)NC(=O)[C@@H](N)CCCCNC(=O)CCCC[C@@H]1SC[C@@H]2NC(=O)N[C@@H]21)C(=O)N[C@@H](C)C(=O)N[C@@H](Cc1ccc(O)cc1)C(=O)N1CCC[C@H]1C(=O)N[C@@H](CC(=O)O)C(=O)N[C@@H](CO)C(=O)N[C@H](C(=O)N1CCC[C@H]1C(=O)N[C@@H](Cc1ccc(O)cc1)C(=O)N[C@@H](CCCNC(=N)N)C(=O)N1CCC[C@H]1C(=O)N[C@@H](CCCCN)C(N)=O)C(C)C | 10000
CSCC[C@H](NC(=O)[C@@H]1CCCN1C(=O)[C@@H](NC(=O)[C@H](CO)NC(=O)[C@H](CC(=O)O)NC(=O)[C@@H]1CCCN1C(=O)[C@H](Cc1ccc(O)cc1)NC(=O)[C@H](C)NC(=O)[C@H](CO)NC(=O)[C@@H](N)Cc1ccc(O)cc1)C(C)C)C(N)=O [YSA1-10am] | 10000
CC(C)C[C@H](NC(=O)[C@H](Cc1c[nH]c2ccccc12)NC(=O)CCN)C(=O)N[C@@H](C)C(=O)N[C@@H](Cc1ccc(O)cc1)C(=O)N1CCC[C@H]1C(=O)N[C@@H](CC(=O)O)C(=O)N[C@@H](CO)C(=O)N[C@H](C(=O)N1CCC[C@H]1C(=O)N[C@@H](Cc1ccc(O)cc1)C(=O)N[C@@H](CCCNC(=N)N)C(=O)O)C(C)C [βA-WLA-YR] (HELM PEPTIDE1{[bAla].W.L.A.Y.P.D.S.V.P.Y.R}$$$$V2.0; N-terminus and C-terminus assumed) | 5000
CSCC[C@H](NC(=O)[C@H](CCSC)NC(=O)[C@@H]1CCCN1C(=O)[C@@H](NC(=O)[C@H](CO)NC(=O)[C@H](CC(=O)O)NC(=O)[C@@H]1CCCN1C(=O)[C@H](Cc1ccc(O)cc1)NC(=O)[C@H](C)NC(=O)[C@H](CO)NC(=O)[C@@H](N)Cc1ccc(O)cc1)C(C)C)C(=O)N[C@@H](CO)C(=O)N[C@@H](CCCCNC(=O)CCCC[C@@H]1SC[C@@H]2NC(=O)N[C@@H]21)C(=O)O | 10000
CC(C)C[C@H](NC(=O)[C@H](Cc1c[nH]c2ccccc12)NC(=O)CCN)C(=O)N[C@@H](C)C(=O)N[C@@H](Cc1ccc(O)cc1)C(=O)N1CCC[C@H]1C(=O)N[C@@H](CC(=O)O)C(=O)N[C@@H](CO)C(=O)N[C@H](C(=O)N1CCC[C@H]1C(=O)N[C@@H](Cc1ccc(O)cc1)C(=O)N[C@@H](CCCNC(=N)N)C(=O)N1CCC[C@H]1C(=O)N[C@@H](CCCCNC(=O)CCCC[C@@H]1SC[C@@H]2NC(=O)N[C@@H]21)C(N)=O)C(C)C | 2000
